tested_system: Serine/threonine-protein kinase PLK4 (Homo sapiens)
Sequence (O00444 whole entry): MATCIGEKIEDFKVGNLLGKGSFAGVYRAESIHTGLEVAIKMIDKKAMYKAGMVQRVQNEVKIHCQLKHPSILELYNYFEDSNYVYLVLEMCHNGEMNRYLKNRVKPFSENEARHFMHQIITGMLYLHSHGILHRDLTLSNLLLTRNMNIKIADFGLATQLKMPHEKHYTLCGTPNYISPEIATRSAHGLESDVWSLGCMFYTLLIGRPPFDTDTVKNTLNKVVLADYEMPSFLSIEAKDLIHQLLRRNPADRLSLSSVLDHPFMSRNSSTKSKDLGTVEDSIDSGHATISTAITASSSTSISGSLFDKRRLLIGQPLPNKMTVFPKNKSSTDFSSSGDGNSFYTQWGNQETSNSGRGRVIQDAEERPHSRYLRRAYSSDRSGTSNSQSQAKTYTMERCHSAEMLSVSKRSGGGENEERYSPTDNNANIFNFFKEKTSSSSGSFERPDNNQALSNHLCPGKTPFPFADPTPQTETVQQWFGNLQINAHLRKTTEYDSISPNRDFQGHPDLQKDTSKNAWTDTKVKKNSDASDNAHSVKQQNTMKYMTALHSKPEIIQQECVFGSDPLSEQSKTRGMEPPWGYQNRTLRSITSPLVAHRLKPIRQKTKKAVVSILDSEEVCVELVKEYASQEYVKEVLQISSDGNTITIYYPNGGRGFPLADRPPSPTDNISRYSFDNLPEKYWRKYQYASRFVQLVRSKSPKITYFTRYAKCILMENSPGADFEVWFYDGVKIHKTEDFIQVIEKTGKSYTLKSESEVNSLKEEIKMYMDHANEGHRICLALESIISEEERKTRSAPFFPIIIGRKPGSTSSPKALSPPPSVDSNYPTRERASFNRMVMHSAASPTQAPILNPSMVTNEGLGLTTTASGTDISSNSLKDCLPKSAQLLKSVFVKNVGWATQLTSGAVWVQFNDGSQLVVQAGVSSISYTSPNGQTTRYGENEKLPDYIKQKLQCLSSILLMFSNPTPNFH
assay_comment: Inhibition of human recombinant PLK4 incubated for 1 hrs by LanthaScreen Eu kinase FRET assay
Provide the recorded pIC50 for the entries that follow.
Scale note: pIC50 = -log10(concentration in M).

For the compound c1ccc(Oc2ccnc(Nc3ccc(N4CCOCC4)cc3)n2)cc1 , what pIC50 is on record?
7.09

For the compound Nc1ccc(Sc2ccnc(Nc3ccc(CN4CCNCC4)cc3)n2)cc1 , what pIC50 is on record?
6.42

For the compound Nc1ccc(Sc2ccnc(Nc3ccc(N4CCOCC4)cc3)n2)cc1F , what pIC50 is on record?
7.25

For the compound Nc1cccc(Sc2ccnc(Nc3ccc(N4CCOCC4)cc3)n2)c1 , what pIC50 is on record?
6.82

For the compound Brc1cccc(Sc2ccnc(Nc3ccc(N4CCOCC4)cc3)n2)c1 , what pIC50 is on record?
5.62

For the compound Clc1ccc(Sc2ccnc(Nc3ccc(N4CCOCC4)cc3)n2)cc1 , what pIC50 is on record?
6.83

For the compound COC(=O)c1cc(Nc2nccc(Sc3ccc(N)cc3)n2)ccc1NC1CCOCC1 , what pIC50 is on record?
5.18

For the compound Nc1ccc(Sc2ccnc(Nc3ccc(NC4CCNC4)cc3)n2)cc1 (stereo not drawn) , what pIC50 is on record?
7.10

For the compound c1ccc(Nc2ccnc(Nc3ccc(N4CCOCC4)cc3)n2)cc1 , what pIC50 is on record?
7.19

For the compound Fc1ccccc1Sc1ccnc(Nc2ccc(N3CCOCC3)cc2)n1 , what pIC50 is on record?
6.87

For the compound Nc1ccc(Sc2ccnc(Nc3ccc(CN4CCOCC4)cc3)n2)cc1 , what pIC50 is on record?
7.19

For the compound Nc1ccccc1Sc1ccnc(Nc2ccc(N3CCOCC3)cc2)n1 , what pIC50 is on record?
6.53

For the compound Nc1ccc(Sc2ccnc(Nc3cccc(N4CCOCC4)c3)n2)cc1 , what pIC50 is on record?
7.35

For the compound CNC(=O)c1ccccc1Sc1ccnc(Nc2ccc(N3CCOCC3)cc2)n1 , what pIC50 is on record?
6.99

For the compound Clc1cccc(Sc2ccnc(Nc3ccc(N4CCOCC4)cc3)n2)c1 , what pIC50 is on record?
5.85

For the compound Nc1ccc(Sc2ccnc(Nc3ccc(C(=O)N4CCOCC4)cc3)n2)cc1 , what pIC50 is on record?
7.41

For the compound c1cc(Sc2ccnc(Nc3ccc(N4CCOCC4)cc3)n2)c2cccnc2c1 , what pIC50 is on record?
7.34

For the compound Nc1ccc(Sc2ccnc(Nc3ccccc3)n2)cc1 , what pIC50 is on record?
6.28

For the compound Nc1ccc(Sc2ccnc(Nc3ccc(N4CCOCC4)cc3)n2)cc1 , what pIC50 is on record?
7.77

For the compound c1ccc(CNc2ccnc(Nc3ccc(N4CCOCC4)cc3)n2)cc1 , what pIC50 is on record?
6.75

For the compound c1ccc2c(Sc3ccnc(Nc4ccc(N5CCOCC5)cc4)n3)cccc2c1 , what pIC50 is on record?
6.75

For the compound Fc1cccc(Sc2ccnc(Nc3ccc(N4CCOCC4)cc3)n2)c1 , what pIC50 is on record?
7.10

For the compound Nc1ccc(Sc2ccnc(Nc3ccc(N4CCNCC4)cc3)n2)cc1 , what pIC50 is on record?
6.86
